- experimental_details: Effective concentration against Nicotinic acetylcholine receptor alpha3-beta4 expressed in xenopus oocytes
- Type: cell-based
- cond: oocyte
endpoint: pEC50
Entry type: numeric. Quantity: pEC50, the -log10 of concentration in molar units.

Recorded pEC50, per entry:
- mol: "O=c1cccc2n1C[C@@H]1CNC[C@H]2C1"
  pEC50: 4.14
- mol: "C[N+]1(C)CCN(c2ccccc2)CC1"
  pEC50: 4.72
- mol: "CN1CCC[C@H]1c1cccnc1"
  pEC50: 4.10

Req: // lookup pEC50 for CC(=O)OCC[N+](C)(C)C
Resp: 3.69

###

Let's look at some molecules and their measured Rmax.
- system_under_test: Neuronal acetylcholine receptor; alpha2/beta4 (Homo sapiens, UniProt P30926+Q15822)
- experimental_details: Maximal response against Nicotinic acetylcholine receptor alpha2-beta4
- Assay type: protein-complex assay
Write it as a number; the unit % goes unstated.

- molecule: "CN1CCC[C@H]1CCSc1ccc(O)cc1"
  Rmax [%]: 102
- molecule: "C[N+]1(C)CCN(c2ccccc2)CC1"
  Rmax [%]: 58
- molecule: "COc1cc2c(cn1)C1NCCC1CC2 (configuration not stated)"
  Rmax [%]: 22
- molecule: "C#Cc1cncc([C@@H]2CCCN2C)c1"
  Rmax [%]: 49
- molecule: "CN1CCC[C@H]1c1cccnc1"
  Rmax [%]: 114
- molecule: "Clc1ccc(C2=CCC[C@H]3CCC2N3)cn1"
  Rmax [%]: 50

Now look at this entry.
Req: // lookup Rmax for O=c1cccc2n1C[C@@H]1CNC[C@H]2C1
Resp: 58
